Molecular target: BaF3-LR_TM_CS cells (Homo sapiens, UniProt P00533, T790M/C797S/L858R, cells depend on it)
Sequence (P00533 whole entry T790M/C797S/L858R): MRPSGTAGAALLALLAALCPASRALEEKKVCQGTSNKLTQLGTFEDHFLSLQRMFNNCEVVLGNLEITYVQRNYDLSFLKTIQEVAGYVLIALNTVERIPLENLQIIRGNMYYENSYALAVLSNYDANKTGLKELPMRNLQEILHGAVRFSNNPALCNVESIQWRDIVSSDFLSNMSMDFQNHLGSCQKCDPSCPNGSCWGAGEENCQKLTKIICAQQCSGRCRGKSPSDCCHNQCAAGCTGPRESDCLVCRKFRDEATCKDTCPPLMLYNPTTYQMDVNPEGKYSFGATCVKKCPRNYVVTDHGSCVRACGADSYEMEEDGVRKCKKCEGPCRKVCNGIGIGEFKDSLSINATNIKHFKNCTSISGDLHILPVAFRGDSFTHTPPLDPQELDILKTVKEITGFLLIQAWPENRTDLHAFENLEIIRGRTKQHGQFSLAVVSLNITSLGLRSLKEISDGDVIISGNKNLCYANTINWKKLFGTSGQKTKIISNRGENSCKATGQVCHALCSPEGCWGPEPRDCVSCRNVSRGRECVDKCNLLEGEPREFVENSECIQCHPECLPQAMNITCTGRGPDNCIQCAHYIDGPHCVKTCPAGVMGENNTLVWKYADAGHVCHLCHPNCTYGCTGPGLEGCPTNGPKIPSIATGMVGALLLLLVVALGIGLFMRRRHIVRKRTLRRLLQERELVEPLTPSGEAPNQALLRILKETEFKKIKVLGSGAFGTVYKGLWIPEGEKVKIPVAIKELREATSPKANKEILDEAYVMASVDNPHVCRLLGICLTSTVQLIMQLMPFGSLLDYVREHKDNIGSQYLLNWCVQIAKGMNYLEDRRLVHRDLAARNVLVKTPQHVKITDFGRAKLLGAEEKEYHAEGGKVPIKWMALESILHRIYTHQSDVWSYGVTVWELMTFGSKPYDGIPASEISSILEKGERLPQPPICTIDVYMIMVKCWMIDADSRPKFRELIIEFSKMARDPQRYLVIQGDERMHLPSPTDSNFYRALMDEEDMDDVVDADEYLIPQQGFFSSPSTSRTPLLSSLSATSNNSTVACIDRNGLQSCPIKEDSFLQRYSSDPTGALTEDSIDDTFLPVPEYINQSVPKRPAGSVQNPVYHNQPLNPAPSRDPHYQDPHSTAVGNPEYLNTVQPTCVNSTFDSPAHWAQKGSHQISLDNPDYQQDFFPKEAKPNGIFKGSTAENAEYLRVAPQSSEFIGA
Test: Cell antiproliferation assay (CellTiter-Glo), BaF3-LR_TM_CS
Assay type: cell-based
Conditions: 48 h treatment, read-out: BaF3-LR_TM_CS IC50
measurement kind: GI50 (µM)

COc1cc(N2CCC(N3CCN(C)CC3)CC2)ccc1Nc1ncc(F)c(Nc2cccc3c2N(S(C)(=O)=O)CC3)n1    0.246
CN1CCN(C2CCN(c3ccc(Nc4ncc(Br)c(Nc5cccc6c5N(S(C)(=O)=O)CC6)n4)c4c3CCO4)CC2)CC1    0.176

(P) COc1cc(N2CCCN(C)CC2)c(C)cc1Nc1nc(Nc2cccc3c2N(S(C)(=O)=O)CC3)c2cc[nH]c2n1
(Q) COc1cc(N2CCC(N3CCN(C)CC3)CC2)c(F)cc1Nc1nc(Nc2cccc3c2N(S(C)(=O)=O)CC3)c2cc[nH]c2n1
Select the item whose GI50 value is smaller, choosing between P and Q . Bench note: the answer is the label of the chosen record.
Q
(Q: 0.0765 µM, P: 0.157 µM)
